Reference for the values: paper PMC9031227

Biological target: T1, His-tagged Catalytic Domain of JAK2 (residues 826–1132) (UniProt O60674 826-1132, RED-tris-NTA dye bound to the His tag (His-Tag labeling Kit RED-tris-NTA))
T1 construct: JAK2 (Janus Kinase 2), catalytic domain, residues 826-1132; also called JAK2 catalytic domain; Janus Kinase 2; source: bought: Carna Biosciences
T1 sequence (O60674 826-1132): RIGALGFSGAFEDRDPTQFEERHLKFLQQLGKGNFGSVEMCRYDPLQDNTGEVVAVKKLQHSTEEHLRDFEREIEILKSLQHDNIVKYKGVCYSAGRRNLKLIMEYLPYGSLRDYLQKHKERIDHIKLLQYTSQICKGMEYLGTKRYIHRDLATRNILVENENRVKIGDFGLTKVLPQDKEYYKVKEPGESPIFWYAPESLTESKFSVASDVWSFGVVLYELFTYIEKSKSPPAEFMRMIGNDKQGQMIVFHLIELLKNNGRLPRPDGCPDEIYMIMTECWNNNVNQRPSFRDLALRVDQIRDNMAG
Assay: MST; Monolith NT 115; His-tagged JAK2 catalytic domain labelled with RED-tris-NTA kept constant, peptides in increasing concentrations; standard capillaries, 25 °C, 50 mM Tris-HCl, 150 mM NaCl, 0.05% Brij35, 1 mM DTT, 10% glycerol, 15% TFE, pH 7.5; fit by Langmuir binding isotherm
Conditions: both partners purified
Where no end group is shown, it is not given here. [ ]: non-standard residue; d: D form. S5 = C=CCCC[C@](C)(N)C(=O)O
readout: pKd
To interpret pKd, take it as minus log10 of a concentration measured in moles per litre.

(Q) What does the record list as pKd for FSSKSEYQL[S5]FYWS[S5]VTG-OH (not fully specified; bridges not given here) [linear version of KIRCONG i/i+5 peptide] ?
(A) 5.10
